Catalogue of Kd values
Biological target: HLA-A*29:02
Test: IEDB peptide-MHC binding, purified MHC/competitive/radioactivity; filed as Kd, often an IC50 or EC50 that approximates it; bounds were set here for any values at or beyond the usual limits of such assays
Conditions: source organism: Mammarenavirus juninense

SVIGTFVAEF    169 nM

Please supply the value of reported Kd for the item `SGKDTPGGY`
≥ 69700 nM

* * *

Target: HLA-B*08:01
Assay: IEDB peptide-MHC binding, purified MHC/direct/fluorescence; filed as Kd, often an IC50 or EC50 that approximates it; bounds were set here for any values at or beyond the usual limits of such assays
Conditions: source organism: Vibrio vulnificus
pKd: −log10 of the molar value.
Recorded endpoint: pKd

Please supply the value of reported pKd for the item `EEVWRDPYL`
≤ 4.70

* * *

Molecular target: HLA-B*58:01
Test: IEDB peptide-MHC binding, purified MHC/direct/fluorescence; filed as Kd, often an IC50 or EC50 that approximates it; bounds were set here for any values at or beyond the usual limits of such assays
Conditions: source organism: Mycobacterium tuberculosis
Recorded endpoint: Kd (nM)
Entry rule: numbers only, all in nM.

State Kd (HLA-B*58:01) of `RSTYRLDGW` .
45.3

* * *

Target: HLA-A*02:02
Test: IEDB peptide-MHC binding, purified MHC/competitive/radioactivity; filed as Kd, often an IC50 or EC50 that approximates it; bounds were set here for any values at or beyond the usual limits of such assays
Conditions: source organism: Lassa virus Josiah
Recorded endpoint: Kd (nM)
Entry rule: numbers only, all in nM.

Please supply the value of reported Kd for the item `LNISGYNFSL`
15.5

* * *

Biological target: HLA-B*35:01
Assay: IEDB peptide-MHC binding, purified MHC/direct/fluorescence; filed as Kd, often an IC50 or EC50 that approximates it; bounds were set here for any values at or beyond the usual limits of such assays
Conditions: source organism: Vibrio parahaemolyticus
Recorded endpoint: Kd (nM)
Entry rule: numbers only, all in nM.

Please supply the value of reported Kd for the item `YREAGIPVL`
1000

* * *

Molecular target: HLA-A*68:02
Assay: IEDB peptide-MHC binding, purified MHC/direct/fluorescence; filed as Kd, often an IC50 or EC50 that approximates it; bounds were set here for any values at or beyond the usual limits of such assays
Settings: source organism: Orthohantavirus tulaense
pKd: −log10 of the molar value.
Recorded endpoint: pKd

FMFNELLAL    ≤ 4.70

Attention now turns to another entry.
Please supply the value of reported pKd for the item `FGAAVSLLF`
≤ 4.70

* * *

Target: HLA-A*02:02
Assay: IEDB peptide-MHC binding, purified MHC/competitive/radioactivity; filed as Kd, often an IC50 or EC50 that approximates it; bounds were set here for any values at or beyond the usual limits of such assays
Conditions: source organism: Vaccinia virus WR
Recorded endpoint: pKd
Quick note: pKd means taking -log10 of the concentration in moles per liter.

ALEPRKEIDV    5.08
YVHEGVSYEV    7.89
QILDNAAKYV    5.41
LLGLILFVL    6.58
FMSHVKSVT    6.29
EVNDTHYTV    6.88
ETLFGSYIT    5.60
PIPYSRVNHA    4.93

Please supply the value of reported pKd for the item `GAFMYTKHSM`
6.26

Please supply the value of reported pKd for the item `FIMRNFLRSI`
7.56

Please supply the value of reported pKd for the item `VIPDELIDV`
6.22

Please supply the value of reported pKd for the item `QVKELGIAI`
5.04

Please supply the value of reported pKd for the item `NLYISDYKML`
5.90
